# Test system: Wild type
# Assay Procedure: S. aureus survival, RN4220 and DeltatarO strains – OD600, teichoic acid synthesis inhibitors, primary screen (AID 463173)
# Cond: S. aureus RN4220 wild type/DeltatarO growth, OD600, 18 h, hits give low values, screened at 18.75 µg/mL (by protocol)
Out of some 52,000 compounds screened, about 1,700 (3.3%) were called active. Only a selection was taken, and actives are over-represented in it overall.
Test Readout: survival (%)
Value expressed in %; do not type the unit.

Examples with their reported survival follow.
Given Smiles	Reading Unit	Meas Value
COc1ccc(N2CCN(C(=O)CSc3n[nH]c(-c4ccccc4)n3)CC2)cc1	%	72
CCN(C(=O)Cn1nc(Cc2cccnc2)c2ccccc2c1=O)c1cc(C)ccc1C	%	83
O=C(NCCc1ccccc1)c1ccc2c(c1)CCN2S(=O)(=O)c1ccc(Cl)cc1	%	114
O=C(Cc1cccc([N+](=O)[O-])c1)NCc1nc2cccnc2n1Cc1ccc(F)cc1	%	133
O=[N+]([O-])c1ccc(S(=O)(=O)NCc2nc3cccnc3n2Cc2ccccc2Cl)cc1	%	74
Cc1ccc(Cn2c(CNC(=O)Cc3cccc([N+](=O)[O-])c3)nc3cccnc32)cc1	%	67
COc1ccc(Cn2c(CNS(=O)(=O)c3ccc4c(c3)CCCC4)nc3cccnc32)cc1	%	133
Cc1cn2c(=O)cc(COC(=O)c3cccc(NC(=O)c4ccccc4C)c3)nc2s1	%	71

Identify measured survival associated with COc1ccc(CNC(=O)c2cnc3cc(C)ccn3c2=O)cc1 85

Identify measured survival associated with CCc1ccc(NC(=O)CSc2nc3c(sc4ccccc43)c(=O)n2CCCOC(C)C)cc1 80

----------
Listing: survival of selected compounds
# Tested on: Wild type
# Assay Procedure: S. aureus survival, RN4220 and DeltatarO strains – OD600, teichoic acid synthesis inhibitors, primary screen (AID 463173)
# Cond: S. aureus RN4220 wild type/DeltatarO growth, OD600, 18 h, hits give low values, screened at 18.75 µg/mL (by protocol)
Hit rate of the full screen: of about 52,000 compounds, about 1,700 (3.3%) were called active. For the sample, actives were picked, then their nearest neighbours and some compounds at random.
Value expressed in %; do not type the unit.

Fill in: survival on Wild type, entry CCc1cccc(C)c1NC(=O)c1cc(CN2CCCC2)on1 72

Fill in: survival on Wild type, entry COc1ccc(-c2noc(CN(C)S(=O)(=O)c3c(C)cc(C)cc3C)n2)cc1OC 78

Fill in: survival on Wild type, entry COc1ccc(-c2noc(COc3ccc(Br)cc3C)n2)cc1OC 11

Fill in: survival on Wild type, entry COCCCNc1nc2c(c(=O)n(Cc3ccc(F)cc3)c(=O)n2C)n1C 130

Fill in: survival on Wild type, entry COc1ccc(OCc2nc3ccccc3n2Cc2ccc(C(C)(C)C)cc2)cc1 0

----------
# System: Wild type
# Assay Procedure: S. aureus survival, RN4220 and DeltatarO strains – OD600, teichoic acid synthesis inhibitors, primary screen (AID 463173)
# Cond: S. aureus RN4220 wild type/DeltatarO growth, OD600, 18 h, screened at 18.75 µg/mL (by protocol)
About 1,700 (3.3%) of roughly 52,000 compounds were called active. Rule as the data show it: active = survival mostly below about 52% (no sharp cut-off); inactive = mostly above about 56%. The sample as a whole holds a higher share of actives than the screen did.
Allowed answers: 1 (active), 0 (inactive)

Example cases with answers are listed next.
Molecule	Target Under Test	Group
COc1ccc(Nc2c(-c3ccccn3)nc3ccc(Cl)cn23)cc1	Wild type	0
Fc1ccc(Cn2c(-c3cccc(Br)c3)nc3ccccc32)cc1	Wild type	0
Cc1ccc2nc(-c3ccccc3F)c(Nc3ccc(Cl)cc3)n2c1	Wild type	1
O=C(Nc1cc(-c2nc3ccccc3o2)ccc1Cl)c1cccc2c(Cl)cccc12	Wild type	0
COc1cc(NC(=O)c2cc3c(=O)n(Cc4ccco4)ccc3nc2C)cc(OC)c1OC	Wild type	0

Identify the outcome logged in this assay for the molecule shown: Cc1ccn2c(Nc3ccccc3C)c(-c3ccccn3)nc2c1 1

Identify the outcome logged in this assay for the molecule shown: Nc1nonc1-c1nc2ccccc2n1Cc1cccc(Cl)c1 0

Identify the outcome logged in this assay for the molecule shown: CCN(c1ccccc1)S(C)(=O)=O 0
